Target: CDK1/cyclin B (Homo sapiens (Human), UniProt P06493)
Sequence (P06493 whole entry, species assumed): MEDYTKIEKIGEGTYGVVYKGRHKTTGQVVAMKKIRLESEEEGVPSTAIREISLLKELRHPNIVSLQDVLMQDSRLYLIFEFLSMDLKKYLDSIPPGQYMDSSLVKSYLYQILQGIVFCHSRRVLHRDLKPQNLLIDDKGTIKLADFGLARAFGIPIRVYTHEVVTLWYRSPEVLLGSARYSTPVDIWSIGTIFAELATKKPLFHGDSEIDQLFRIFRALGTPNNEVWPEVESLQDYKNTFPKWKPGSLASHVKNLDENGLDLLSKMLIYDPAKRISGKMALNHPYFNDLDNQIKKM
Sequence (P14635 whole entry partner, species assumed): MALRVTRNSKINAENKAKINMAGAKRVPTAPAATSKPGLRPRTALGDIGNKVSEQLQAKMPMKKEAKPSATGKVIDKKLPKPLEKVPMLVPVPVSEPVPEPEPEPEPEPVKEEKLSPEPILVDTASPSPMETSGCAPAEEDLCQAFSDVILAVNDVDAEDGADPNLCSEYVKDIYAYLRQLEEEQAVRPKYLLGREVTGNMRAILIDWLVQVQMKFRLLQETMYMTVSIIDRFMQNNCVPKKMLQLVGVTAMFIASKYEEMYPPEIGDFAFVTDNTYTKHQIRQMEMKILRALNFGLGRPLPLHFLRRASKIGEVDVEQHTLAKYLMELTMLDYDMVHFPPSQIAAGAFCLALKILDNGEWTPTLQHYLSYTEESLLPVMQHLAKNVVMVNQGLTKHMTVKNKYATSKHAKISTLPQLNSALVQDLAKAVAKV
Assay: CDK1/cyclin B enzymatic activity assay (IMAP-FP)
Format: biochemical
Conditions: 0.25 nM CDK1/cyclin B, 100 nM Tamra Histone-H1 peptide, 20 μM ATP, 120 min at room temperature; read-out: Biochemical CDK1 enzyme IC50

>  <MOLECULE>
CN(C)C(=O)c1cc2cnc(Nc3ccc(C(=O)N4CC5CCC(C4)O5)cn3)nc2n1C1CCCC1

>  <IC50>
> 15 µM

$$$$
>  <MOLECULE>
CN(C)C(=O)c1cc2cnc(Nc3ccc(N4CC5CCC(N5)C4=O)cn3)nc2n1C1CCCCCC1 (centres unmarked)

>  <IC50>
14 µM

$$$$
>  <MOLECULE>
Cc1cc(Nc2ncc3cc(C(=O)N(C)C)n(C4CCCC4)c3n2)ncc1C(=O)N1CC2CCC(C1)N2

>  <IC50>
> 15 µM

$$$$
>  <MOLECULE>
CN(C)C(=O)c1cc2cnc(Nc3ccc(N4C[C@@H]5CNC[C@@H]5C4=O)cn3)nc2n1C1CCCC1

>  <IC50>
8.98 to 11.2 µM

$$$$
>  <MOLECULE>
CN(C)C(=O)c1cc2cnc(Nc3ccc(N4CCN5CCCC5C4=O)cn3)nc2n1C1CCCC1 (centres unmarked)

>  <IC50>
> 15 µM

$$$$
>  <MOLECULE>
CN(C)C(=O)c1cc2cnc(Nc3ccc(N4CC5CNCC5C4=O)cn3)nc2n1C1CCCC1 (racemic)

>  <IC50>
18 µM

$$$$
>  <MOLECULE>
CN(C)C(=O)c1cc2cnc(Nc3ccc(N4CC5CNCC5C4=O)cn3)nc2n1C1CCCCCC1 (centres unmarked)

>  <IC50>
3.81 µM

$$$$
>  <MOLECULE>
CN1C[C@@H]2CN(c3ccc(Nc4ncc5cc(C(=O)N(C)C)n(C6CCCC6)c5n4)nc3)C(=O)[C@@H]2C1 (stereo in doubt)

>  <IC50>
14 to 14.3 µM

$$$$
>  <MOLECULE>
CN(C)C(=O)c1cc2cnc(Nc3ccc(C(=O)N4CC5CCC(C4)N5)nn3)nc2n1C1CCCC1

>  <IC50>
> 15 µM

$$$$
>  <MOLECULE>
CN(C)C(=O)c1cc2cnc(Nc3ccc(C(=O)N4CC5C[C@]5(N)C4)cn3)nc2n1C1CCCC1 (single isomer, unassigned)

>  <IC50>
> 15 µM

$$$$
>  <MOLECULE>
CN(C)C(=O)c1cc2cnc(Nc3ccc(N4CCCC5(CCNCC5)C4=O)cn3)nc2n1C1CCCC1

>  <IC50>
> 15 µM

$$$$
>  <MOLECULE>
CN(C)C(=O)c1cc2cnc(Nc3ccc(N4C(=O)CN5CCC4CC5)cn3)nc2n1C1CCCCCC1

>  <IC50>
> 15 µM

$$$$
>  <MOLECULE>
CN(C)C(=O)c1cc2cnc(Nc3ccc(N4CC5CCC(CC4=O)N5)nn3)nc2n1C1CCCC1 (centres unmarked)

>  <IC50>
> 15 µM

$$$$
>  <MOLECULE>
CN(C)C(=O)c1cc2cnc(Nc3ccc(N4CC5CC5(N)C4)cn3)nc2n1C1CCCC1 (centres unmarked)

>  <IC50>
> 15 µM

$$$$
>  <MOLECULE>
[2H]C([2H])([2H])N1[C@@H]2CC[C@H]1CN(c1ccc(Nc3ncc4cc(C(=O)N(C)C)n(C5CCCC5)c4n3)nc1)C(=O)C2

>  <IC50>
> 15 µM

$$$$
>  <MOLECULE>
CN(C)C(=O)c1cc2cnc(Nc3ccc(N4C[C@H]5CNC[C@H]5CC4=O)cn3)nc2n1C1CCCC1 (stereo in doubt)

>  <IC50>
13.3 to 14.9 µM

$$$$
>  <MOLECULE>
CN(C)C(=O)c1cc2cnc(Nc3ccc(C(=O)N4CC5CC4CN5)cn3)nc2n1C1CCCCCC1 (centres unmarked)

>  <IC50>
4.2 to 5.14 µM

$$$$

====

We begin with a simple list: items and their reported IC50.
Target: CDK4/cyclin D1 (Homo sapiens (Human), UniProt P11802)
Sequence (P11802 whole entry): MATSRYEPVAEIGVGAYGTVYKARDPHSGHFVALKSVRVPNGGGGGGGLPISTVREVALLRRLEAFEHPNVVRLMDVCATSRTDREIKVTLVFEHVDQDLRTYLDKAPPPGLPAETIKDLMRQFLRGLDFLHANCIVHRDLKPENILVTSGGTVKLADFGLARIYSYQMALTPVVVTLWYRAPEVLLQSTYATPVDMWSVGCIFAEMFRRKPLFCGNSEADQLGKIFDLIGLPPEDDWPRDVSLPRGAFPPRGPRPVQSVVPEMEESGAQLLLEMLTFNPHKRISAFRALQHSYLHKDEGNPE
Sequence (P24385 whole entry partner): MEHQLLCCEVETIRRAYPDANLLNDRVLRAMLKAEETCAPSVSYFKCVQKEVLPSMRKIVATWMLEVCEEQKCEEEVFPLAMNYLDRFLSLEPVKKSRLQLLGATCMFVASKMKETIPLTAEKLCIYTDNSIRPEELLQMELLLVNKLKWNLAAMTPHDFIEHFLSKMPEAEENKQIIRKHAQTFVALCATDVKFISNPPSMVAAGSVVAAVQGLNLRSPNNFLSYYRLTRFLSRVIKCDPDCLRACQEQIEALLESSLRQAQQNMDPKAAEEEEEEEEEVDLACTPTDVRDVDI
Assay: CDK4/cyclin D1 enzymatic activity assay (TR-FRET, phosphorylation of pRb at Ser780)
Format: biochemical
Conditions: 0.3 nM CDK4/cyclin D1, 150 nM biotin-pRb (773-924), 3 μM ATP, 60 min at 22° C.; read-out: Biochemical CDK4 enzyme IC50
MEASUREMENT LABEL: IC50 (nM)

>  <COMPOUND>
CN(C)C(=O)c1cc2cnc(Nc3ccc(C(=O)N4CC5CCC(C4)N5)cn3)nc2n1C1CCCCCC1 [Example 4]

>  <MEASURED>
4

$$$$
>  <COMPOUND>
CN(C)C(=O)c1cc2cnc(Nc3ccc(N4CCCC5(CCNCC5)C4=O)cn3)nc2n1C1CCCC1 [Example 114]

>  <MEASURED>
190

$$$$
>  <COMPOUND>
CN(C)C(=O)c1cc2cnc(Nc3ccc(C(=O)N4CC5CCC(C4)N5)cn3)nc2n1C(C)(C)C [Example 58]

>  <MEASURED>
74

$$$$
>  <COMPOUND>
CC(=O)NCC(=O)N1[C@@H]2CC[C@H]1CN(c1ccc(Nc3ncc4cc(C(=O)N(C)C)n(C5CCCC5)c4n3)nc1)C(=O)C2 [Example 138]

>  <MEASURED>
106

$$$$
>  <COMPOUND>
CN1C[C@@H]2CN(c3ccc(Nc4ncc5cc(C(=O)N(C)C)n(C6CCCC6)c5n4)nc3)C(=O)[C@@H]2C1 (stereo in doubt) [Example 95]

>  <MEASURED>
7

$$$$
>  <COMPOUND>
CN(C)C(=O)c1cc2cnc(Nc3ccc(C(=O)N4CCN5CCCC5C4)cn3)nc2n1C1CCCC1 (stereo not drawn) [Example 20]

>  <MEASURED>
64

$$$$
>  <COMPOUND>
CN(C)C(=O)c1cc2cnc(Nc3ccc(N4CC5(CC6CCC(C5)N6C)OC4=O)cn3)nc2n1C1CCCC1 (stereo not drawn) [Example 102]

>  <MEASURED>
18

$$$$
>  <COMPOUND>
CN(C)C(=O)c1cc2cnc(Nc3ccc(N4C(=O)CN5CCC4CC5)cn3)nc2n1C1CCCCCC1 [Example 97]

>  <MEASURED>
51

$$$$
>  <COMPOUND>
CN(C)C(=O)c1cc2cnc(Nc3ccc(N4CC5CCC(CC4=O)N5)cn3)nc2n1-c1ccccc1 (stereo not drawn) [Example 128]

>  <MEASURED>
9

$$$$
>  <COMPOUND>
CN1CCCC2(CC1)CN(c1ccc(Nc3ncc4cc(C(=O)N(C)C)n(C5CCCC5)c4n3)nc1)C(=O)O2 (stereo not drawn) [Example 104]

>  <MEASURED>
20

$$$$
>  <COMPOUND>
CN(C)C(=O)c1cc2cnc(Nc3ccc(N4CCN5CCCCC5C4=O)cn3)nc2n1C1CCCCC1 (stereo not drawn) [Example 100]

>  <MEASURED>
35

$$$$
>  <COMPOUND>
CN(C)C(=O)c1cc2cnc(Nc3ccc(C(=O)N4CC5CC5(N(C)C)C4)cn3)nc2n1C1CCCC1 (stereo not drawn) [Example 17]

>  <MEASURED>
65

$$$$
>  <COMPOUND>
CC(=O)N1C2CCC1CN(C(=O)c1ccc(Nc3ncc4cc(C(=O)N(C)C)n(C5CCCC5)c4n3)nc1)C2 [Example 27]

>  <MEASURED>
46

$$$$

====

Test system: phosphorylation of pRb at the Ser780 site in JeKo-1 mantle cell lymphoma cells
Test: CDK4 cellular assay: ELISA of pRb phosphorylation at Ser780 in JeKo-1 cells
Format: cell-based
Settings: Homo sapiens; JeKo-1 cells, p-pRb Ser780 ELISA, non-normalized; read-out: Cellular ppRb inhibition IC50
compounds and their reported IC50

>  <COMPOUND>
CN(C)C(=O)c1cc2cnc(Nc3ccc(C(=O)N4CC5CCC(C4)N5C(=O)CN)cn3)nc2n1C1CCCC1

>  <IC50 (nM)>
21

$$$$
>  <COMPOUND>
CN(C)C(=O)c1cc2cnc(Nc3ccc(N4CC5(CC4=O)CC4CCC(C5)N4)cn3)nc2n1C1CCCOC1 (stereo not shown)

>  <IC50 (nM)>
677

$$$$

====

Test system: phosphorylation of pRb at the Ser780 site in JeKo-1 mantle cell lymphoma cells
Assay: CDK4 cellular assay: ELISA of pRb phosphorylation at Ser780 in JeKo-1 cells
Type: cell-based
Settings: Homo sapiens, JeKo-1, JeKo-1 cells, p-pRb % inhibition adjusted with total pRb levels; read-out: Normalized cellular ppRb inhibition IC50
pIC50: −log10 of the molar value.

>  <COMPOUND>
CN(C)C(=O)c1cc2cnc(Nc3ccc(N4CC5CCC(CC4=O)N5)nn3)nc2n1C1CCCC1 (stereo not shown)

>  <pIC50>
6.93

$$$$
>  <COMPOUND>
[2H]C([2H])([2H])N1[C@@H]2CC[C@H]1CN(c1ccc(Nc3ncc4cc(C(=O)N(C)C)n(C5CCCC5)c4n3)nc1)C(=O)C2

>  <pIC50>
6.60

$$$$
>  <COMPOUND>
Cc1nc(Nc2ncc3cc(C(=O)N(C)C)n(C4CCCC4)c3n2)ccc1C(=O)N1CC2CCC(C1)N2

>  <pIC50>
7.05

$$$$
>  <COMPOUND>
CN(C)C(=O)c1cc2cnc(Nc3ccc(N4CCN5CCC[C@H]5C4=O)cn3)nc2n1C1CCCC1

>  <pIC50>
5.54

$$$$
>  <COMPOUND>
CN(C)C(=O)c1cc2cnc(Nc3ccc(N4C[C@H]5CNC[C@H]5CC4=O)cn3)nc2n1C1CCCCCC1 (stereo in doubt)

>  <pIC50>
7.96

$$$$
>  <COMPOUND>
CN(C)C(=O)c1cc2cnc(Nc3ccc(C(=O)N4CC5C[C@]5(N)C4)cn3)nc2n1C1CCCC1 (single isomer, unassigned)

>  <pIC50>
6.63

$$$$
>  <COMPOUND>
CN(C)C(=O)c1cc2cnc(Nc3ccc(N4C[C@H]5CC[C@@H](CC4=O)N5)cn3)nc2n1C1CCC1

>  <pIC50>
6.66

$$$$
>  <COMPOUND>
CN(C)C(=O)c1cc2cnc(Nc3ccc(C(=O)N4CC5CC5(N)C4)cn3)nc2n1C1CCCC1 (racemic)

>  <pIC50>
6.43

$$$$
